Data provenance: patent US10071976B2

- TARGET OR TEST SYSTEM: FASN-TE (Homo sapiens, UniProt P49327)
- Sequence (P49327 2207-2511 limits assumed): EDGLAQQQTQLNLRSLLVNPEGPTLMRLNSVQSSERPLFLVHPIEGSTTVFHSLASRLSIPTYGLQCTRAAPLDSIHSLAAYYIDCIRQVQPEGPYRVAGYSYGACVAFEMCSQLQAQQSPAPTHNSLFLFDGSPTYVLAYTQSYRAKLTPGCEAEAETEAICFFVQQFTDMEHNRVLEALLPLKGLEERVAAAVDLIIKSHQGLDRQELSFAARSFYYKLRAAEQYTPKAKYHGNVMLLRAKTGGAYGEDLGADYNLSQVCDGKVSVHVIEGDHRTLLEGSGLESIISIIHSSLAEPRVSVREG
Please respond with true when measured IC50 is strictly beneath 300 nM, and with false in all other cases.

# count of solved cases: 2
Challenge: IC50 under 300 nM? Item: O=C(Nc1nc(-c2ccc(S(=O)(=O)N3CCCC3)cc2)cs1)C1COc2ccccc2O1 (centres unmarked) [Compound 63]
Response given: false

Challenge: I'd appreciate it if you could check whether O=S(=O)(c1ccc(-c2csc(-c3ccc(F)cc3)n2)cc1)N1CCOCC1 [Compound 116] has IC50 smaller than 300 nM.
Response given: false

Others:
Challenge: Identify whether the molecule CCC(=O)Nc1nc(-c2ccc(S(=O)(=O)N3CCCC3)cc2)cs1 [Compound 26] records IC50 below 300 nM.
Response given: false

Challenge: Please indicate whether the reported IC50 of CCN(CC)S(=O)(=O)c1ccc(-c2csc(-c3ccc(F)cc3)n2)cc1 [Compound 103] is strictly below 300 nM.
Response given: false

Challenge: Lab log: compare recorded IC50 with 300 nM; is it strictly lower for CCN(CC)S(=O)(=O)c1ccc(-c2csc(NC(=O)C(C)C)n2)cc1 [Compound 33] ?
Response given: true

Challenge: Identify whether the molecule CCN(CC)S(=O)(=O)c1ccc(-c2csc(Cc3cccc(C(F)(F)F)c3)n2)cc1 [Compound 108] records IC50 below 300 nM.
Response given: false

Challenge: Please state whether IC50 is below 300 nM for CCC(CC)C(=O)Nc1nc(-c2ccc(S(=O)(=O)N3CCOCC3)cc2)cs1 [Compound 16]
Response given: false

Challenge: Item CC(C)CC(=O)Nc1nc(-c2ccc(S(=O)(=O)N3CCOCC3)cc2)cs1 [Compound 7] : IC50 beneath 300 nM, strictly?
Response given: false

Challenge: Would you kindly verify if IC50 of O=C(Nc1nc(-c2ccc(S(=O)(=O)N3CCOCC3)cc2)cs1)C1CCCC1 [Compound 19] is strictly less than 300 nM?
Response given: false

Challenge: Is the reported IC50 for CC(C)CC(=O)Nc1nc(-c2ccc(S(=O)(=O)N3CCCC3)cc2)cs1 [Compound 52] strictly below 300 nM?
Response given: false

Challenge: Determine if CCCCC(=O)Nc1nc(-c2ccc(S(=O)(=O)N3CCCC3)cc2)cs1 [Compound 8] shows IC50 strictly lower than 300 nM.
Response given: true
